tested on: EKVX NSCLC; experiment: NCI tumour cell line growth inhibition, 48 h
value.kind: GI50

Example results:
compound	GI50
Cn1cnc([N+](=O)[O-])c1Sc1nc(N)nc2nc[nH]c12	3.9 µM
C=C(CNCCc1ccc(O)cc1)[C@@H]1CC[C@]2(CO)CC[C@]3(C)[C@H](CC[C@@H]4[C@@]5(C)CCC(N)C(C)(C)[C@@H]5CC[C@]43C)[C@@H]12 (stereo not given in full)	1.66 µM
CC(C)(CO)N=Cc1ccccc1[O-].CC(C)(CO)N=Cc1ccccc1[O-].[Co+2]	> 84.4 µM
c1ccc(CC(NCCNC(Cc2ccccc2)c2ccccc2)c2ccccc2)cc1 (stereo not given)	0.482 µM

Please examine the following record next.
For the compound shown here, COc1ccc2c(c1)nc1n2C(c2ccc(F)cc2)SC1 (stereo not given) , give the reported GI50. 21.8 µM

Cited source for all entries: PubChem BioAssay (NCI)
